Field: IC50. Provide a value for each of the compounds that follow.
- experiment_summary: Cytotoxicity against human PANC1 cells after 24 hrs by FMCA
- Format: functional, cell-based
- run_parameters: PANC-1, 24 h
Answer in µM, number only, no unit symbol.

Give the measured IC50 for CC1=C(CO)C(=O)O[C@@H]([C@@H](C)[C@H]2CC[C@H]3[C@@H]4C[C@H]5O[C@]56[C@@H](O)C=CC(=O)[C@]6(C)[C@H]4CC[C@]23C)C1
1.6

Give the measured IC50 for CC1=C(C)C(=O)O[C@@H]([C@@H](C)[C@H]2CC[C@H]3[C@@H]4C[C@H]5O[C@]56[C@@H](O)C=CC(=O)[C@]6(C)[C@H]4CC[C@]23C)C1
1.1

Give the measured IC50 for CC1=C(CO)C(=O)O[C@@H]([C@@H](C)[C@H]2CC[C@H]3[C@@H]4C[C@H]5O[C@]56[C@@H](O)[C@@H](OS(=O)(=O)O)CC(=O)[C@]6(C)[C@H]4CC[C@]23C)C1
14.8

Give the measured IC50 for CC1=C(CO)C(=O)O[C@@H]([C@@H](C)[C@H]2CC[C@H]3[C@@H]4CC=C5[C@@H](O)C=CC(=O)[C@]5(C)[C@H]4CC[C@]23C)C1
11.9

====

- experiment_summary: Cytotoxicity against mouse C3H10T1/2 cells after 24 hrs by FMCA
- Type: cell-based
- run_parameters: C3H 10T1/2, 24 h
measure_name: pIC50
Worth noting: pIC50 values are minus log10 of concentrations stated in mol/L.

Give the measured pIC50 for CC1=C(C)C(=O)O[C@@H]([C@@H](C)[C@H]2CC[C@H]3[C@@H]4C[C@H]5O[C@]56[C@@H](O)C=CC(=O)[C@]6(C)[C@H]4CC[C@]23C)C1
5.39

Give the measured pIC50 for CC1=C(CO)C(=O)O[C@@H]([C@@H](C)[C@H]2CC[C@H]3[C@@H]4C[C@H]5O[C@]56[C@@H](O)C=CC(=O)[C@]6(C)[C@H]4CC[C@]23C)C1
5.31

Give the measured pIC50 for CC1=C(CO)C(=O)O[C@@H]([C@@H](C)[C@H]2CC[C@H]3[C@@H]4C[C@H]5O[C@]56[C@@H](O)[C@@H](OS(=O)(=O)O)CC(=O)[C@]6(C)[C@H]4CC[C@]23C)C1
4.68

====

- experiment_summary: Cytotoxicity against mouse C3H10T1/2 cells after 24 hrs by FMCA
- Assay type: cell-based
- run_parameters: C3H 10T1/2, 24 h
measure_name: IC50

Give the measured IC50 for CC1=C(CO)C(=O)O[C@@H]([C@@H](C)[C@H]2CC[C@H]3[C@@H]4CC=C5[C@@H](O)C=CC(=O)[C@]5(C)[C@H]4CC[C@]23C)C1
> 25 µM

Give the measured IC50 for CO[C@H]1CC(=O)[C@]2(C)[C@H]3CC[C@]4(C)[C@@H]([C@H](C)[C@H]5CC(C)=C(CO)C(=O)O5)CC[C@H]4[C@@H]3C[C@H]3O[C@]32[C@H]1O
> 25 µM

Give the measured IC50 for CC1=C(CO)C(=O)O[C@@H]([C@@H](C)[C@H]2CC[C@H]3[C@@H]4C[C@H]5O[C@]56[C@@H](O)CCC(=O)[C@]6(C)[C@H]4CC[C@]23C)C1
> 25 µM
